Origin of measurements: PubChem BioAssay AID1996

Assign solubility kinetic to each entry below.
- Study Conditions: buffer; pH 7.4; 200.0 µM
Reply numerically in µg/mL, unit not repeated.

Documented solubility kinetic of `COC(=O)C1=C(NC(=O)c2ccccc2C)CCS1` : 10

Quick note, solubility kinetic for `Cn1ccnc1SCC(=O)c1ccc2ccccc2c1` landed at 35.8

So for `S=c1nc(-c2ccc(Br)cc2)[nH]c2ccccc12` , the logged solubility kinetic turned out to be 0.7

Value of solubility kinetic reported for the molecule CC1=C(C(=O)OC2CCCCC2)C(c2ccccc2)NC(=O)N1 (centres undefined) is 11.3

GET /value?item= `c1ccc(-c2noc(-c3ccno3)n2)nc1` &field=solubility kinetic returns 25.4

solubility kinetic reported for this molecule CCOC(=O)C1=C(C)NC(=O)NC1/C=C\c1ccccc1 (centres undefined) : 1.3

Given item `COc1ccc(CNc2nc3ccccc3n2C)c(O)c1` , the value recorded as its solubility kinetic is 10.7

Entry `Cc1ccc(NC(=O)N2CCC(C(=O)c3ccc(F)cc3)CC2)cc1` — recorded solubility kinetic = 0.6

Per the record, Cc1ccsc1C(=O)OCC(=O)NC1CCCC(C)C1C (centres undefined) has solubility kinetic of 11.3

response.value for `N#CCOC(=O)[C@H](Cc1ccccc1)N1C(=O)c2ccccc2C1=O` (field: solubility kinetic) = 47.3

get_value(item= `COc1cc([N+](=O)[O-])ccc1NC(=O)CSc1ccccn1` , readout=solubility kinetic) returns 0.5

Consider `CCOc1cc2c(C#N)c(N3CCNCC3)nc(N)c2c(N)n1` . Its measured solubility kinetic is 1.3

Memo: `COC(CNC(=O)c1ccc2nc3ccccc3c(=O)n2c1)OC` , reported solubility kinetic: 49
